- target-desc: EGFR L858R (Homo sapiens, UniProt P00533, L858R)
- Construct: purchased Carna Bio
- Sequence (P00533 25-1210 L858R): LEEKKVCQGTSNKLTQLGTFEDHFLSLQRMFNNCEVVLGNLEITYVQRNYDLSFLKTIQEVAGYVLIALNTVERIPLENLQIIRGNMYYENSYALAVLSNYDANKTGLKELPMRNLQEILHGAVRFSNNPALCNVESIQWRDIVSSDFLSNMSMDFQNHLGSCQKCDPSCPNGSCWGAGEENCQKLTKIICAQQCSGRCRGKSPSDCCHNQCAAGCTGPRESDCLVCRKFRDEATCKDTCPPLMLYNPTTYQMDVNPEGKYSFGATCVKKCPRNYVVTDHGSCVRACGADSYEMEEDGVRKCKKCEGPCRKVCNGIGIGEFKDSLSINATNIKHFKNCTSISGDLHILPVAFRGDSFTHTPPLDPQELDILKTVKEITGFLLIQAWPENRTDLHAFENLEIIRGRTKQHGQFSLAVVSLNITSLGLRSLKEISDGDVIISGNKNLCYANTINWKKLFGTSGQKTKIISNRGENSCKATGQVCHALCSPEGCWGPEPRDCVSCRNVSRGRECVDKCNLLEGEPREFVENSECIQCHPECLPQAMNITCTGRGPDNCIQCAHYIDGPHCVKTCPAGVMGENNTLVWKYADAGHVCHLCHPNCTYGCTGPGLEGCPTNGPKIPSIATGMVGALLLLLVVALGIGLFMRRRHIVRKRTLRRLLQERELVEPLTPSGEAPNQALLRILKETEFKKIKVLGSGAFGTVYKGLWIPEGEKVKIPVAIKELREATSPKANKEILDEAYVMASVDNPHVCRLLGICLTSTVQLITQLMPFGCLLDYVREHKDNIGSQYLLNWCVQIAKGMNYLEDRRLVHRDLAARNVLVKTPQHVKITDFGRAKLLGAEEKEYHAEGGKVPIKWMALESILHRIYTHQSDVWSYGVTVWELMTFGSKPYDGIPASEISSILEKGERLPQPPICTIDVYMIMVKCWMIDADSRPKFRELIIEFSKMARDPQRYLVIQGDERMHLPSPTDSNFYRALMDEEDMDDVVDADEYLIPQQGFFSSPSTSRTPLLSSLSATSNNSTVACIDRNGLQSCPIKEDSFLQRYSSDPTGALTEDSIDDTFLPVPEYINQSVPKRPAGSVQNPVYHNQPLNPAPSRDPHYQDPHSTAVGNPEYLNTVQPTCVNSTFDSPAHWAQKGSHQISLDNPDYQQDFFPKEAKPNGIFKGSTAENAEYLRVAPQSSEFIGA
- test-details: Inhibition of EGFR L858R biochemical enzymatic activity (HTRF)
- assay-context: 1 mM ATP, 1 h, room temperature, read-out: IC50 (nM) @L858R

compound	result-qualifier	IC50 / nM
CN1CCN(c2ccc3nc4n(c3c2)CC2(CCCOc3c(cnn3C)-c3cc(cn(C)c3=O)C(=O)N4)CC2)CC1	=	1370
C[C@@H]1CCCOc2c(cnn2C)-c2cc(cn(C)c2=O)C(=O)Nc2nc3ccc4c(c3n2C1)CCNC4	=	414
Cn1ncc2c1OCCN1CC3CCC(C3)(C1)n1c(nc3ccc(N4CCC(N5CCOCC5)C4)cc31)NC(=O)c1cc-2c(=O)n(C)c1 (single isomer, unassigned) [Example A104B]	=	53
CN1CCC2(CC1)CCN(c1ccc3nc4n(c3c1)C13CCC(CN(CCOc5c(cnn5C)-c5cc(cn(C)c5=O)C(=O)N4)C1)C3)C2 (single isomer, unassigned) [Example A88A]	>	5000
Cc1cc2cc(n1)-c1cnn(C)c1OCCN1CC3CCC(CC3)(C1)n1c(nc3ccc(N4CCOCC4)cc31)NC2=O	=	320
CN(C)CCCN(C)c1ccc2nc3n(c2c1)C12CCC(CC1)CN(CCOc1c(cnn1C)-c1cc(cn(C)c1=O)C(=O)N3)C2	=	189
CN1CC2(CCN(c3ccc4nc5n(c4c3)C34CCC(CN(CCOc6c(cnn6C)-c6cc(cn(C)c6=O)C(=O)N5)C3)C4)C2)C1 (single isomer, unassigned) [Example A73B]	=	4
C[C@@H]1CCCOc2c(cnn2C)-c2cc(cn(C)c2=O)C(=O)Nc2nc3ccc(N4CCC(N5CCN(C)CC5)C4)cc3n2C1 (stereo partly drawn)	=	7.3
Cn1ncc2c1OCCN1CC3CCC(CC3)(C1)n1c(nc3ccccc31)NC(=O)c1cc-2c(=O)n(C)c1	=	2500
C[C@@H]1CCCOc2c(cnn2C)-c2cc(cn(C)c2=O)C(=O)Nc2nc3ccc(N4CCC(N(C)C)C4)cc3n2C1 (stereo partly drawn)	=	25
Cn1ncc2c1OCCN1CC3CCC(C3)(C1)n1c(nc3ccc(N4CCN(C5CC5)CC4)cc31)NC(=O)c1cc-2c(=O)n(C)c1 (single isomer, unassigned) [Example A83B]	=	5
Cn1ncc2c1OCCN1CC3CCC(C3)(C1)n1c(nc3ccc(N4CC(N5CCOCC5)C4)cc31)NC(=O)c1cc-2c(=O)n(C)c1 (single isomer, unassigned) [Example A69A]	>	5000
